Form field: pIC50 (one value per entry).
Test system: Baf3-WT
Test: Cellular assay (Alamar Blue), Baf3-WT with mouse IL-3
Type: cell-based
Conditions: mouse IL-3 at 5 ng/ml, 72 hr
pIC50: −log10 of the molar value.

The examples below pair each entry with its known result.
* C[C@H](Nc1cncc(Cl)n1)c1cccc(NC(=O)c2cccc(C(F)(F)F)c2)c1 | < 5.00
* Cc1ccc(NC(=O)c2cccc(C(F)(F)F)c2)cc1[C@H](C)Nc1cncc(Cl)n1 | > 5.00
* COc1cccc(C(=O)Nc2cccc([C@H](C)Nc3cncc(-c4cccc(N5CCOCC5)c4)n3)c2)c1 | < 5.00
* C[C@H](Nc1cncc(-c2ccc(N3CCN(C)CC3)cc2)n1)c1cccc(NC(=O)c2cccc(C(F)(F)F)c2)c1 | > 5.00
* C[C@H](Nc1cncc(-c2ccc(N3CCOCC3)nc2)n1)c1cccc(NC(=O)c2cccc(C(F)(F)F)c2)c1 | < 5.00

Endpoint output: pIC50 of "C[C@H](Nc1cncc(-c2ccc(CO)cc2)n1)c1cccc(NC(=O)c2cccc(C(F)(F)F)c2)c1" . Value?
< 5.00

Also check "Cc1cn(-c2cncc(N[C@@H](C)c3cccc(NC(=O)c4cccc(C(F)(F)F)c4)c3)n2)cn1"
> 5.00

* * *

inhibition at 1 µM overview
Biological target: Flt1(h) (Homo sapiens, UniProt P17948)
Construct: purchased Upstate Biotechnology (Dundee, UK), KinaseProfiler service
Sequence (P17948 27-1338): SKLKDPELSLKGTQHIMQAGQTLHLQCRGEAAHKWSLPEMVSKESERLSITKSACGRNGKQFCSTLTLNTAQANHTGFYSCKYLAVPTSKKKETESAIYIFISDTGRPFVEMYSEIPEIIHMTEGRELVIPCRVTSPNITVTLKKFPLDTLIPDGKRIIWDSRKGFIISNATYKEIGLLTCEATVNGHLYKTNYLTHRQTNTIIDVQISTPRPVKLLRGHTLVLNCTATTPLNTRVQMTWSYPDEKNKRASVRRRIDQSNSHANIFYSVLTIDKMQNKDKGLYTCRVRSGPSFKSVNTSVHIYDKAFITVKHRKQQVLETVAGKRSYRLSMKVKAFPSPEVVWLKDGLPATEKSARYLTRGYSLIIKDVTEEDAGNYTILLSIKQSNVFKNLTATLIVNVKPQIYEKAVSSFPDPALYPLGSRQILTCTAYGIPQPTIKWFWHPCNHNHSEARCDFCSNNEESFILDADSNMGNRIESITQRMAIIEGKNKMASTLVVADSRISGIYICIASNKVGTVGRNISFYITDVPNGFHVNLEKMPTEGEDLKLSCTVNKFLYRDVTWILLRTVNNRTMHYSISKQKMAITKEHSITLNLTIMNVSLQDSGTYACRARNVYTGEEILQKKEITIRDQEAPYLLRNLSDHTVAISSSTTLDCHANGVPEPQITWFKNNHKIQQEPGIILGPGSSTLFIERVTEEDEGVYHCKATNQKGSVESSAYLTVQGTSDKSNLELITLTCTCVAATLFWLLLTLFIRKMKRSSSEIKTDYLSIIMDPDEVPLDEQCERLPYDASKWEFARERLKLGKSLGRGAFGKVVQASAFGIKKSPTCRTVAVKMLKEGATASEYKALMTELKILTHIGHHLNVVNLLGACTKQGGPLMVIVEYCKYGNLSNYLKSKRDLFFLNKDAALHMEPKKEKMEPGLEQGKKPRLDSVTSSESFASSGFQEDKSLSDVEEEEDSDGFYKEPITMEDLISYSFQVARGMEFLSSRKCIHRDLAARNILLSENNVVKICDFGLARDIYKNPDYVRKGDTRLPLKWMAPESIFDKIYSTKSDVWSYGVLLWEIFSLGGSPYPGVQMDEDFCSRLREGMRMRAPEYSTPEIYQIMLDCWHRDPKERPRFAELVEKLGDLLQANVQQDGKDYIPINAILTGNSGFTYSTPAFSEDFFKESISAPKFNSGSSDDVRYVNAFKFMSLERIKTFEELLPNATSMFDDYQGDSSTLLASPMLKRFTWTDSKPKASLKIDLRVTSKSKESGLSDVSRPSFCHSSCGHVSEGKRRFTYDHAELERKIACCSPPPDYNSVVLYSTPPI
Assay: KinaseProfiler assay (Upstate), Flt1
Format: biochemical
Conditions: 1 μM

Would you please look over these solved cases?
- Cc1cccc(C(=O)Nc2cccc([C@H](C)Nc3cncc(-c4ccc(N5CCN(C)CC5)cc4)n3)c2)c1: 100%
- C[C@H](Nc1cncc(Cl)n1)c1cccc(NC(=O)c2cccc(C(F)(F)F)c2)c1: 99%
- Cc1cccc(C(=O)Nc2cccc([C@H](C)Nc3cncc(C(N)=O)n3)c2)c1: 99%

Under Flt1(h) (Homo sapiens, UniProt P17948): inhibition at 1 µM value of "Cc1cccc(C(=O)Nc2cccc([C@H](C)Nc3cncc(-c4cccc(N5CCOCC5)c4)n3)c2)c1" ?
100%

What would you report for "C[C@H](Nc1cncc(-c2ccc(N3CCN(C)CC3)cc2)n1)c1cccc(NC(=O)c2cccc(C(F)(F)F)c2)c1" ?
99%

* * *

Test system: mNFS-60
Assay: Cellular assay (Alamar Blue), mNFS-60 with human M-CSF
Type: cell-based
Settings: human M-CSF at 20 ng/ml, 72 hr
Attribute Measured: IC50

Take a look at these entries with their results.
* Cc1cccc(C(=O)Nc2cccc([C@H](C)Nc3cncc(-c4cccc(N5CCOCC5)c4)n3)c2)c1 [Compound 147] | < 0.2 µM
* C[C@H](Nc1cncc(-c2cccc(CO)c2)n1)c1cccc(NC(=O)c2cccc(C(F)(F)F)c2)c1 [Compound 185] | < 0.2 µM
* C[C@H](Nc1cncc(-c2cccc(N3CCOCC3)c2)n1)c1cccc(NC(=O)c2cccc(C(F)(F)F)c2)c1 [Compound 149] | < 1 µM
* Cc1cccc(C(=O)Nc2cccc([C@H](C)Nc3cncc(-n4ccnc4)n3)c2)c1 [Compound 143] | < 0.2 µM
* COc1cccc(-c2cncc(N[C@@H](C)c3cccc(NC(=O)c4cccc(C)c4)c3)n2)c1 [Compound 100] | < 0.2 µM

I am curious: what IC50 value has been reported for C[C@H](Nc1cncc(Cl)n1)c1cccc(NC(=O)c2cccc(CN3CCN(C)CC3)c2)c1 [Compound 127] ?
< 1 µM

Lookup C[C@H](Nc1cncc(-c2ccc(NS(C)(=O)=O)cc2)n1)c1cccc(NC(=O)c2cccc(C(F)(F)F)c2)c1 [Compound 183]
< 0.2 µM
